Assay: Phase I study: plasma and urine pharmacokinetics
Assay type: in vivo, human
Conditions: human, plasma, oral, 800 mg BID, AUC(0‐ t ), plasma; after multiple doses, Cycle 1 day 15; last sampling time point 12 h; mean (SD); N = 7
Reported Endpoint: AUC (ng·h/mL)

{"Molecule": "CCN(c1cc(-c2ccc(CN3CCOCC3)cc2)cc(C(=O)NCc2c(C)cc(C)[nH]c2=O)c1C)C1CCOCC1", "Number": 4490}

###

Assay: Phase I study: plasma and urine pharmacokinetics
Assay type: in vivo, human
Conditions: human, plasma, oral, 800 mg
Reported Endpoint: Vd/F (L)

{"Molecule": "CCN(c1cc(-c2ccc(CN3CCOCC3)cc2)cc(C(=O)NCc2c(C)cc(C)[nH]c2=O)c1C)C1CCOCC1", "Number": 1910}

###

Assay: Phase I study: plasma and urine pharmacokinetics
Format: in vivo, human
Conditions: human, plasma, oral, 800 mg BID, t max, plasma; after multiple doses, Cycle 1 day 15; median (minimum, maximum); N = 7
Reported Endpoint: t max

{"Compound": "CCN(c1cc(-c2ccc(CN3CCOCC3)cc2)cc(C(=O)NCc2c(C)cc(C)[nH]c2=O)c1C)C1CCOCC1 [Tazemetostat]", "Result": "~1 h"}
